- system: T1, human PD-L1 expressed on mammalian cells (human, UniProt Q9NZQ7 19-290)
- T1 construct: whole, on cells; also called PDL1-CHOK1 cells; PDL1-Raji cells
- T1 sequence (Q9NZQ7 19-290): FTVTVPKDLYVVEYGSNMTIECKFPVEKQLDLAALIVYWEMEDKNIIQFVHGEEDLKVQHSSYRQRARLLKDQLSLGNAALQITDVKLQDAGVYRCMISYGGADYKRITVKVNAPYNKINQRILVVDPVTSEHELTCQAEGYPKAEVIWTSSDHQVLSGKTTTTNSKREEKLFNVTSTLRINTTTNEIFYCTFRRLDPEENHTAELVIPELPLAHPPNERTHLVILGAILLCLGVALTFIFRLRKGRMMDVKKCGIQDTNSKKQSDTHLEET
- protocol-text: FACS receptor blocking on PDL1-CHOK1 cells, competitor Bio-PD1 (30 µg/ml)
// values below are reported TOP
Answer field: number only, no words.

[
  {
    "binder": "Hu1210-36 (antibody, V domains shown, Hu1210 VH.5d (printed 'VH.Sd') x Vk.2; human gamma 1 / kappa constant domains) VH: EVQLVESGGGLVQPGGSLRLSCAASGFTFSSYDMSWVRQTPEKSLEWVATISDGGGYIYYSDSVKGRFTISRDNAKNNLYLQMNSLRAEDTAVYICAREFGKRYALDYWGQGTLVTVSS VL: DIQMTQSPSSLSASVGDRVTITCKASQDVTPAVAWYQQKPGKAPKLLIYSTSSRYTGVPSRFSGSGSGTDFTLTISSLQPEDFATYYCQQHYTTPLTFGQGTKLEIKR",
    "TOP": 91.8
  }
]

// returns reported TOP for input H1210 chimera (antibody, V domains shown, also called chimeric antibody) VH: EVKLVESGGDLVKPGGSLKLSCAASGFTFSSYDMSWVRQTPEKSLEWVATISDGGGYIYYSDSVKGRFTISRDNAKNNLYLQMSSLRSEDTALYICAREFGKRYALDYWGQGTSVTVSS VL: DIVMTQSHKFMSTSVGDRVSISCKASQDVTPAVAWYQQKPGQSPKLLIYSTSSRYTGVPDRFTGSGSGTDFTFTISSVQAEDLAVYYCQQHYTTPLTFGAGTKLELK
87.2

Quick check: TOP of Hu1210-22 (antibody, V domains shown, Hu1210 VH.4b x Vk.1a; human gamma 1 / kappa constant domains) VH: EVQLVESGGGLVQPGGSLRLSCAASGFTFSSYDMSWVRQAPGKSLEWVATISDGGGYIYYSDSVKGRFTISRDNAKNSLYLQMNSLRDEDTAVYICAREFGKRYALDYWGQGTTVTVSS VL: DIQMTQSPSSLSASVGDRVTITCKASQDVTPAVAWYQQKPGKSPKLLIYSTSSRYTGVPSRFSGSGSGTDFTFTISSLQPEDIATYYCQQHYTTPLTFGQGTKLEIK ?
85.8

What does the record list as TOP for Hu1210-31 (antibody, V domains shown, Hu1210 VH.5b x Vk.2; human gamma 1 / kappa constant domains) VH: EVQLVESGGGLVQPGGSLRLSCAASGFTFSSYDMSWVRQAPGKGLEWVATISDGGGYIYYSDSVKGRFTISRDNAKNSLYLQMNSLRAEDTAVYICAREFGKRYALDYWGQGTTVTVSS VL: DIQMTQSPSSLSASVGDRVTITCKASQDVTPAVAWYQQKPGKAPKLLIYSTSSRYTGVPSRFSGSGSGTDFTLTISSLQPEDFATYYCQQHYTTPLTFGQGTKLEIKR ?
92.9

// query TOP value for entry Hu1210-3 (antibody, V domains shown, Hu1210 VH.1b x Vk.1; human gamma 1 / kappa constant domains) VH: EVQLVESGGGLVKPGGSLRLSCAASGFTFSSYDMSWVRQAPGKSLEWVATISDGGGYIYYSDSVKGRFTISRDNAKNSLYLQMNSLRAEDTAVYICAREFGKRYALDYWGQGTTVTVSS VL: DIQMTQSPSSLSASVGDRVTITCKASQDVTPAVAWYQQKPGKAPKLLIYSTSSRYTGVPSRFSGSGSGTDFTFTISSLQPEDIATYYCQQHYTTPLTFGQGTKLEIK
84.3

Which TOP reading was recorded for the binder Hu1210-27 (antibody, V domains shown, Hu1210 VH.5a x Vk.2; human gamma 1 / kappa constant domains) VH: EVQLVESGGGLVQPGGSLRLSCAASGFTFSSYDMSWVRQAPGKGLEWVATISDGGGYIYYSDSVKGRFTISRDNAKNSLYLQMNSLRAEDTAVYICAREFGKRYALDYWGQGTLVTVSS VL: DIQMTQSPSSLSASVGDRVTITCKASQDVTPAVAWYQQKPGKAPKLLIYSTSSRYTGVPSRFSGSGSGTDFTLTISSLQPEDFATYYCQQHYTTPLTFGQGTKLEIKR ?
104
